Values from paper PMC5916898

# testedOn: KLF13 (Homo sapiens, UniProt Q9Y2Y9)
# Sequence (Q9Y2Y9 whole entry): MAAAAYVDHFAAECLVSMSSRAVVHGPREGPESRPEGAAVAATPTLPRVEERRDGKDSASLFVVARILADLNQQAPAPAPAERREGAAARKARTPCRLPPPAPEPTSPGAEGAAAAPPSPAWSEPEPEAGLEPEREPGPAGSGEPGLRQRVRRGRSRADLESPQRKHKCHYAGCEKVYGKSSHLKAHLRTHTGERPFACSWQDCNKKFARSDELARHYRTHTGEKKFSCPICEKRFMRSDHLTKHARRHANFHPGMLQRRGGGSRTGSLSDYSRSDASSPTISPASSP
# testDescription: competition; 150 mM NaCl, 50 mM Tris pH 8, 0.25% NP-40, 1 mM TCEP; 4 C, 2 h; 100 ug HeLa nuclear lysate; free competitor against 200 nM immobilised SP/KLF wild-type
# assaySetup: protein: extract
measuredAttribute: pIC50
pIC50 is defined as minus the log10 of a concentration measured in mol/L.

q: Endpoint output: pIC50 of SP/KLF wild-type (dsDNA) DNA 1: GAGAGCCCCGCCCCCTGGCT DNA 2: AGCCAGGGGGCGGGGCTCTC . Value?
a: 7.06
